Recorded ΔTm, one value per entry.
Tested on: Nucleic Acid
ASSAY SUMMARY: Binding affinity to duplex DNA F10T assessed as change in melting temperature at 1 uM by FRET-melting assay
Type: nucleic-acid assay

{"SMILES CODE": "O=C(CN1CCOCC1)Nc1cc(-n2cccn2)c2[nH]c3c(-n4cccn4)cc(NC(=O)CN4CCOCC4)cc3c2c1", "ΔTm": "0.2 °C"}
{"SMILES CODE": "O=C(CCN1CCCC1)Nc1cc(-n2cccn2)c2[nH]c3c(-n4cccn4)cc(NC(=O)CCN4CCCC4)cc3c2c1", "ΔTm": "0.5 °C"}
{"SMILES CODE": "CCN(CC)CC(=O)Nc1cc(-n2cccn2)c2[nH]c3c(-n4cccn4)cc(NC(=O)CN(CC)CC)cc3c2c1", "ΔTm": "0.6 °C"}
{"SMILES CODE": "O=C(CN1CCCCC1)Nc1cc(-n2cccn2)c2[nH]c3c(-n4cccn4)cc(NC(=O)CN4CCCCC4)cc3c2c1", "ΔTm": "0.1 °C"}
{"SMILES CODE": "CCN(CC)CCC(=O)Nc1cc(-n2cccn2)c2[nH]c3c(-n4cccn4)cc(NC(=O)CCN(CC)CC)cc3c2c1", "ΔTm": "0.3 °C"}
{"SMILES CODE": "O=C(CN1CCCC1)Nc1cc(-n2cccn2)c2[nH]c3c(-n4cccn4)cc(NC(=O)CN4CCCC4)cc3c2c1", "ΔTm": "0.3 °C"}
{"SMILES CODE": "O=C(CCN1CCCCC1)Nc1cc(-n2cccn2)c2[nH]c3c(-n4cccn4)cc(NC(=O)CCN4CCCCC4)cc3c2c1", "ΔTm": "0.3 °C"}
{"SMILES CODE": "O=C(CCN1CCOCC1)Nc1cc(-n2cccn2)c2[nH]c3c(-n4cccn4)cc(NC(=O)CCN4CCOCC4)cc3c2c1", "ΔTm": "0.3 °C"}
